TARGET ENTITY: UniProt:P0A725
Sequence (P0A725 whole entry): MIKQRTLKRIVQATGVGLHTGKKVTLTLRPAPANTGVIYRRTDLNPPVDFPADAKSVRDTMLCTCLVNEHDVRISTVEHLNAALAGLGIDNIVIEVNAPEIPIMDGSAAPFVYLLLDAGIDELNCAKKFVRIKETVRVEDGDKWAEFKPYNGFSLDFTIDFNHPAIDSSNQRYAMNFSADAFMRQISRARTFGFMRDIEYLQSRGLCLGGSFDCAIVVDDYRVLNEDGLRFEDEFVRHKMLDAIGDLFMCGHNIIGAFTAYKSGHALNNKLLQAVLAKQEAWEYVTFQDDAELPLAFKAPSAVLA
ENDPOINT: IC50 (µM)
Give bare numbers, in µM.

Recorded IC50, per entry:
COc1ccc(C2=NOC(C(=O)CSC(C)=O)C2)cc1 (racemic) = 12
COc1ccc(C2=NOC(P(C)(=O)O)C2)cc1 (racemic) = 170
COc1ccc(C2=NOC(CS)C2)cc1 (racemic) = 22

Next compound, IC50 to be filled in.
The compound COc1ccc(C2=NOC(C(=O)NNC=O)C2)cc1 (racemic) showed IC50 equal to 400

---

TARGET ENTITY: UDP-3-O-acyl-N-acetylglucosamine deacetylase (Escherichia coli K-12)
Hi there, I'd appreciate the recorded pIC50 for every entry that follows.
One number for each entry, as −log10 of the molar value.

COc1ccc(C2=N[C@@H](C(=O)NO)CO2)cc1 = 5.52
COc1ccc(C2=NOC(P(=O)(O)O)C2)cc1 (racemic) = 5.40
COc1ccc(C2=NO[C@H](C(=O)NO)C2)cc1 = 5.36
COc1ccc(C2=NOC(C(=O)NO)C2)cc1 (racemic) = 4.89

The compound COc1ccc(C2=NOC(C(=O)CS)C2)cc1 (racemic) showed pIC50 equal to 4.57

---

Hi there, I'd appreciate the recorded pIC50 for every entry that follows.
TARGET ENTITY: UDP-3-O-acyl-N-acetylglucosamine deacetylase (Escherichia coli K-12, UniProt P0A725)
pIC50: −log10 of the molar value.

Recorded pIC50, per entry:
COc1ccc(C2=NO[C@@H]([C@@H](O)CS)C2)cc1 (relative stereo) = < 3.40
COc1ccc(C2=NOC(C(=O)NCO)C2)cc1 (racemic) = < 3.40

Lab note: each compound below needs its pIC50 filled in.
1. COc1ccc(C2=NOC(C(=O)Nc3ccccn3)C2)cc1 (racemic)
2. COc1ccc(C2=NO[C@@H]([C@H](O)CS)C2)cc1 (relative stereo)
3. COc1ccc(C2=NOC(C(=O)O)C2)cc1 (racemic)

1: < 3.47; 2: < 3.40; 3: < 3.35
